Numbers sourced from PubChem BioAssay.

- Method Notes: inhibitors of TNFa-induced NFkB p65 translocation, primary screen, imaging, HUVEC, MLSMR starter and 10KST1 sets (AID 438);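 note: compound added about 3h40 before a 20 min TNFalpha stimulation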
- Run Parameters: HUVEC TNFa-induced p65 nuclear translocation; measured here: nuclei count (cytotoxicity indicator), at 2.08 µM
// reported cell count per item
Measure: cell count

[[record]]
molecule = "Cc1nn(-c2ccccc2)c2sc(C(=O)N3CCOCC3)cc12"
assay_result = 536

[[record]]
molecule = "COc1ccc(N(CC(=O)NCCSC(C)(C)C)S(C)(=O)=O)c(OC)c1"
assay_result = 387

[[record]]
molecule = "O=C(Oc1ccccc1)c1cccc(COC(=O)c2cnccn2)c1"
assay_result = 385

[[record]]
molecule = "CCOc1ccc(S(=O)(=O)NCC2CCCO2)c2cccnc12 (stereo unspecified)"
assay_result = 365

[[record]]
molecule = "CC(=O)N1CCN=C1SCc1c(F)cccc1Cl"
assay_result = 509

[[record]]
molecule = "c1cnc2c(SCc3ccc(-c4nnco4)cc3)cccc2c1"
assay_result = 431

[[record]]
molecule = "C=CCN1C(=O)C2(c3ccccc31)C1CCCC=C1C(C#N)=C(N)C2(C#N)C#N (stereo unspecified)"
assay_result = 752

[[record]]
molecule = "Cc1cc(C)nc(SCCS(=O)Cc2ccc(Cl)cc2)n1 (stereo unspecified)"
assay_result = 306

[[record]]
molecule = "CSc1nnc(-c2ccc(NC(=O)CCc3ccccc3)cc2)n1C"
assay_result = 711

[[record]]
molecule = "CC1CCCCC1NC(=O)C1CCN(C(=O)NC2CCCCC2)CC1 (stereo unspecified)"
assay_result = 172

[[record]]
molecule = "O=C(NCCN1CCCCCC1)c1ccc(CS(=O)(=O)c2ccc(Br)cc2)o1"
assay_result = 591


* * *

- Study System: Alpha-2C adrenergic receptor (Homo sapiens)
- Method Notes: compounds altering alpha2C-coupled GIRK flux – cell-based, HEK293 alpha2C/GIRK1/2, thallium flux, primary screen (AID 624);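 note: slope of fluorescence ratio to pre-addition baseline per second over 15 to 24 s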
- Run Parameters: thallium flux BTC fluorescence, at 10 µM, actives lie on both sides
Please note: slope exactly at 0.005 is 0.0. Only values below 0.005 get 1.0.

[[record]]
molecule = "COC(=O)c1sccc1NC(=O)c1csc(C)c1"
label = 0.0

[[record]]
molecule = "Cc1nc(N)c(C#N)c(-c2cccnc2)c1C"
label = 0.0

[[record]]
molecule = "CC(C)(C)NC(=O)NC(=O)COc1ccccc1C#N"
label = 0.0

[[record]]
molecule = "Cc1cccc(NS(=O)(=O)c2cc(C(=O)OCC(=O)Nc3cc(C)on3)ccc2C)c1"
label = 0.0

[[record]]
molecule = "Cc1cc(C)c2c(=O)n(CC(=O)NCCCN3CCOCC3)sc2n1"
label = 0.0

[[record]]
molecule = "Cn1c(C(=O)NCCN2CCN(c3ccccc3F)CC2)cc2c(=O)n(C)c3ccccc3c21"
label = 0.0

[[record]]
molecule = "Cc1ccc(-c2noc(C3CCCN(C(=O)c4ccccc4)C3)n2)o1 (stereo unspecified)"
label = 1.0

[[record]]
molecule = "O=C(Nc1nccs1)c1ccc(COc2ccccc2Br)o1"
label = 0.0

[[record]]
molecule = "CC(CCc1ccccc1)NCc1ccncc1 (stereo unspecified)"
label = 0.0

[[record]]
molecule = "CC(C)(NC(=O)N1CCCC1)c1cccc(C(C)(C)NC(=O)N2CCCC2)c1"
label = 1.0


* * *

- Study System: Voltage-gated potassium channel subunit beta-2 (Rattus norvegicus)
- Method Notes: inhibitors of rat Kvbeta2 reductase activity – biochemical, NADPH fluorescence, primary screen (AID 622);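 note: slope of raw intensity against log time taken from 70 to 1610 s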
- Run Parameters: recombinant KvBeta, 4-cyanobenzaldehyde reduction, at 10 µM, stronger effect = higher value
Measure: fluorescence slope

[[record]]
compound = "O=C(Nc1nccs1)c1cccc(NC(=O)C2CC2)c1"
assay_result = -0.409

[[record]]
compound = "CN(c1ccccc1)S(=O)(=O)c1ccc(C(=O)OCC(=O)NCc2ccco2)cc1"
assay_result = -0.588

[[record]]
compound = "O=C(OCC(=O)N1CCC(Cc2ccccc2)CC1)c1ccc[nH]c1=O"
assay_result = -0.341

[[record]]
compound = "COc1cc(OC)cc(OCC(O)Cn2cnc(-c3ccccc3)c2)c1 (stereo not drawn)"
assay_result = -0.469

[[record]]
compound = "COc1ccc(S(=O)(=O)Nc2ccc(F)c(F)c2)cc1Cl"
assay_result = -0.496

[[record]]
compound = "CCc1cc(=O)n2[nH]c(C)c(-c3ccccc3OC)c2n1"
assay_result = -0.592

[[record]]
compound = "CC(C)CCNC(=O)C(C)N(Cc1ccc(F)cc1)C(=O)c1ccc(CN2CCCCC2)o1 (stereo not drawn)"
assay_result = -0.284

[[record]]
compound = "CN(CC(=O)NCCC1=CCCCC1)S(=O)(=O)c1ccc2c(c1)CCC(=O)N2"
assay_result = -0.505

[[record]]
compound = "O=C(C1CCCN(S(=O)(=O)c2cnc[nH]2)C1)N1CC(=O)N(CCc2ccccc2)C(=O)C1 (stereo not drawn)"
assay_result = -0.573

[[record]]
compound = "COC(=O)c1ccccc1NS(=O)(=O)c1ccc(F)cc1"
assay_result = -0.523

[[record]]
compound = "C1CCc2nnc(-c3nnc4n3CCCCC4)n2CC1"
assay_result = -0.344

[[record]]
compound = "Cc1cc(NC(=O)CCC(=O)N(CC(=O)NC2CCCC2)Cc2ccc(F)cc2)no1"
assay_result = -0.421

[[record]]
compound = "Cc1ccccc1CSc1nnc(C)c(=O)[nH]1"
assay_result = -0.581

[[record]]
compound = "CC(=O)OC1c2ccccc2C(=O)N1c1ccccc1C (stereo not drawn)"
assay_result = -0.586

[[record]]
compound = "Cc1ccccc1NC(=O)CSc1nc(N)c(C#N)c(-c2cccs2)c1C#N"
assay_result = -0.475

[[record]]
compound = "COC(=O)C(C)Sc1nc2c(c(=O)n1-c1ccccc1)SCC2 (stereo not drawn)"
assay_result = -0.523

[[record]]
compound = "Cc1cc(C)c2ccc(N)nc2c1O"
assay_result = -0.462

[[record]]
compound = "COc1ccc(-n2c(Cc3cccn3C)nnc2SCC(N)=O)cc1"
assay_result = -0.59

[[record]]
compound = "Cn1cccc1Cc1nnc(SCC(=O)Nc2ccccc2F)n1-c1ccc(F)cc1"
assay_result = -0.561

[[record]]
compound = "CCOC(=O)c1ccc(NS(=O)(=O)c2cccc3nsnc23)cc1"
assay_result = -0.409

[[record]]
compound = "COc1ccc(Cl)cc1Nc1nc(NCCO)nc(N2CCCC2)n1"
assay_result = -0.595

[[record]]
compound = "CC1(c2ccc(Cl)cc2)NC(=O)N(CC(=O)NC(=O)NCc2ccco2)C1=O (stereo not drawn)"
assay_result = -0.399

[[record]]
compound = "Cc1nc2ccc(S(=O)(=O)NC(C(=O)NCc3cccs3)C(C)C)cc2s1 (stereo not drawn)"
assay_result = -0.612

